Hey, just so you know, these numbers are from ChEMBL document CHEMBL1961873.

- measurement_target: Ribosomal protein S6 kinase alpha-3 (Homo sapiens);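 also: reported value is a mean inhibition figure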
- measurement_setup: at 0.1 µM
Give inhibition for every item shown.

Exercise: Would you kindly share the measured inhibition for O=C(O[C@H]1CN[C@H](C#Cc2cc3ncnc(Nc4ccc(OCc5cccc(F)c5)c(Cl)c4)c3s2)C1)N1CCOCC1 ?
Key: 1.55%

Exercise: Would you kindly share the measured inhibition for COc1c(C(N)=O)cc(-c2ccc(Cl)cc2)cc1-c1ccc(S(N)(=O)=O)cc1 ?
Key: 1.72%

Exercise: Would you kindly share the measured inhibition for CNC(=O)c1sc(-n2cnc3cc(OC)c(OC)cc32)cc1OCc1ccccc1C(F)(F)F ?
Key: 1.77%

Exercise: Would you kindly share the measured inhibition for Fc1cccc(COc2ccc(Nc3ncncc3C#Cc3ccccc3)cc2Cl)c1 ?
Key: 1.92%

Exercise: Would you kindly share the measured inhibition for COc1cc(N2CCN(C(C)C)CC2)ccc1Nc1nc(Nc2cccc3ncccc23)c2cc[nH]c2n1 ?
Key: 1.66%

Exercise: Would you kindly share the measured inhibition for c1cnn2ncc(-c3ccnc(NCCCN4CCOCC4)n3)c2c1 ?
Key: 0.98%

Exercise: Would you kindly share the measured inhibition for Fc1ccc(Nc2nccc(-c3c(-c4ccc(C(F)(F)F)cc4)nn4ncccc34)n2)cc1F ?
Key: -0.49%

Exercise: Would you kindly share the measured inhibition for CS(=O)(=O)CCNCc1ccc(-c2ccc3ncnc(Nc4ccc(OCc5ccccc5)cc4)c3c2)o1 ?
Key: 2.27%

Exercise: Would you kindly share the measured inhibition for CC1=C(C(=O)Nc2ccc3[nH]ncc3c2)C(c2ccc(F)cc2)N=C(c2ccc(C(F)(F)F)nc2)N1 (stereo not given) ?
Key: -0.02%

Exercise: Would you kindly share the measured inhibition for COc1cc2c(cc1Nc1nc(Nc3cccc(F)c3C(N)=O)c3cc[nH]c3n1)N(C(=O)CN1CCN(C(C)C)CC1)CC2 ?
Key: 2.2%

----------
Give inhibition for every item shown.
- measurement_target: Tyrosine-protein kinase Blk (Homo sapiens) (UniProt P51451)
- Sequence (P51451 2-505 limits assumed): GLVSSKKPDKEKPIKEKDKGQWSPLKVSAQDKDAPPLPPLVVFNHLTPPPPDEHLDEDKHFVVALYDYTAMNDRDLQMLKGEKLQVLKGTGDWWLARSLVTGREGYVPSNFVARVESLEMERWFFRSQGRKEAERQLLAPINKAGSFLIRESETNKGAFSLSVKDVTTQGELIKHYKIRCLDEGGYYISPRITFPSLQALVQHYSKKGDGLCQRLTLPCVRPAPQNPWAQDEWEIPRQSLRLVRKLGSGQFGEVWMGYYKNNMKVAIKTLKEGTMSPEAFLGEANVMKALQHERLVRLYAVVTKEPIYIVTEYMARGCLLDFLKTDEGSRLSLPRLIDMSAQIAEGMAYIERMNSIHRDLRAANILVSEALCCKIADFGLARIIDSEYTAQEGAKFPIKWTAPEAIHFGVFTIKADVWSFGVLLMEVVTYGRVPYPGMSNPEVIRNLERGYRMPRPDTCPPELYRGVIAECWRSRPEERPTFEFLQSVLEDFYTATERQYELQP
- measurement_setup: at 1 µM
The response must be a number in % with no trailing unit.

Exercise: Would you kindly share the measured inhibition for CC1(C)CC(n2cnc(-c3ccc(F)cc3)c2-c2ccnc(N)n2)CC(C)(C)N1 ?
Key: 1.43

Exercise: Would you kindly share the measured inhibition for CCn1c(-c2nonc2N)nc2cncc(C(=O)NCCNC)c21 ?
Key: 5.42

Exercise: Would you kindly share the measured inhibition for COc1ccccc1-c1cc(/C=C2\C(=O)Nc3ncc(Br)cc32)cc(Br)c1O ?
Key: 10.7

----------
- measurement_target: Tyrosine-protein kinase Fer (Homo sapiens) (UniProt P16591)
- Sequence (P16591 whole entry, looked up): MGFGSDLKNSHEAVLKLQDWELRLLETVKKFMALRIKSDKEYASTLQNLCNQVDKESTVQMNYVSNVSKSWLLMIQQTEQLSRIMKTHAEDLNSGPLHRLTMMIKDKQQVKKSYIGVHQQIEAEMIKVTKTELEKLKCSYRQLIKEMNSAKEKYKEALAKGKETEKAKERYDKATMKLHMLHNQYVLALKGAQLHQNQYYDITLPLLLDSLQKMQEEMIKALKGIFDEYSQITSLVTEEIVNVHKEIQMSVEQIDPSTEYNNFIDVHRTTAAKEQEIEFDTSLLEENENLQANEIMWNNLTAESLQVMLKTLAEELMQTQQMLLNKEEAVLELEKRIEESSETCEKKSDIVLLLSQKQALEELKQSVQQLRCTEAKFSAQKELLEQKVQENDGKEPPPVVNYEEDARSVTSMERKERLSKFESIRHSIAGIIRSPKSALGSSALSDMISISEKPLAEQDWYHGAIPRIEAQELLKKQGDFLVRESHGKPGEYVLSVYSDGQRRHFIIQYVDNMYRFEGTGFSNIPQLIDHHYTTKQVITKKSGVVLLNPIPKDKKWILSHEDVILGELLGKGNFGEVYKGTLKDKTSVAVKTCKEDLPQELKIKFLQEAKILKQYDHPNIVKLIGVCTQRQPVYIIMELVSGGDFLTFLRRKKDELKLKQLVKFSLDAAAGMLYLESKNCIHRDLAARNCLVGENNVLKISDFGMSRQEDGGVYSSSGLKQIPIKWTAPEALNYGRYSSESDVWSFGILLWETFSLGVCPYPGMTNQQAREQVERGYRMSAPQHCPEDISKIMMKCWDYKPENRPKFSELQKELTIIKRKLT
- measurement_setup: at 1 µM
- Description: GSK_PKIS: FER mean inhibition at 1 uM [Nanosyn]
Give inhibition for every item shown.
The response must be a number in % with no trailing unit.

Exercise: Would you kindly share the measured inhibition for COc1cc(N2CCN(C(C)C)CC2)ccc1Nc1nc(Nc2cccc3ncccc23)c2cc[nH]c2n1 ?
Key: 44.4

Exercise: Would you kindly share the measured inhibition for CN1CCC(n2cnc(-c3ccc(F)cc3)c2-c2ccnc(NCCO)n2)CC1 ?
Key: 7.14

Exercise: Would you kindly share the measured inhibition for COc1ccc2ncn(-c3cc(O[C@H](C)c4ccccc4C(F)(F)F)c(C(N)=O)s3)c2c1 ?
Key: 3.58

Exercise: Would you kindly share the measured inhibition for NS(=O)(=O)c1cccc(N/C=C2\C(=O)Nc3ccccc32)c1 ?
Key: 6.18

Exercise: Would you kindly share the measured inhibition for Fc1ccc(Nc2nccc(-c3c(-c4ccc(C(F)(F)F)cc4)nn4ncccc34)n2)cc1F ?
Key: 4.28

Exercise: Would you kindly share the measured inhibition for CNC(=O)c1sc(-n2cnc3cc(OC)c(OC)cc32)cc1OCc1ccccc1C(F)(F)F ?
Key: 5.74

Exercise: Would you kindly share the measured inhibition for Cc1c2ccc(N(C)c3ccnc(Nc4cccc(S(N)(=O)=O)c4)n3)cc2nn1C ?
Key: 74.1

Exercise: Would you kindly share the measured inhibition for CCS(=O)(=O)c1ccc(OC)c(Nc2ncc(-c3cccc(C(C)=O)c3)o2)c1 ?
Key: 3.06

Exercise: Would you kindly share the measured inhibition for c1ccc(-c2n[nH]cc2-c2ccnc(-c3ccc(OCCn4ccnc4)cc3)c2)nc1 ?
Key: 1.84

Exercise: Would you kindly share the measured inhibition for O=C(O[C@H]1CN[C@H](C#Cc2cc3ncnc(Nc4ccc5c(cnn5Cc5ccccc5)c4)c3s2)C1)N1CCOCC1 ?
Key: 0.92

----------
- measurement_target: Tyrosine-protein kinase Blk (Homo sapiens) (UniProt P51451);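 also: mean percent inhibition of BLK kinase activity, from GSK PKIS kinase inhibitor set profiling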
- measurement_setup: at 1 µM
Give inhibition for every item shown.
The response must be a number in % with no trailing unit.

Exercise: Tyrosine-protein kinase Blk (Homo sapiens) (UniProt P51451) / inhibition / CN(c1ccc(NC(=O)NCCN2CCOCC2)cc1)c1ccnc(Nc2ccc(CS(C)(=O)=O)cc2)n1 : value?
Key: 8.61

Exercise: Tyrosine-protein kinase Blk (Homo sapiens) (UniProt P51451) / inhibition / N#Cc1cccc(Nc2ncc(-c3ccccc3)o2)c1 : value?
Key: 5.45

Exercise: Tyrosine-protein kinase Blk (Homo sapiens) (UniProt P51451) / inhibition / NS(=O)(=O)c1cccc(N/C=C2\C(=O)Nc3ccccc32)c1 : value?
Key: 8.59

Exercise: Tyrosine-protein kinase Blk (Homo sapiens) (UniProt P51451) / inhibition / CC(C)c1ccc(-c2cc(-c3c[nH]nc3-c3ccccn3)ccn2)cc1 : value?
Key: 0.42

Exercise: Tyrosine-protein kinase Blk (Homo sapiens) (UniProt P51451) / inhibition / CN(C)CCNC(=O)Nc1ccc(N(C)c2ccnc(Nc3ccc(CS(C)(=O)=O)cc3)n2)cc1 : value?
Key: 9.64

Exercise: Tyrosine-protein kinase Blk (Homo sapiens) (UniProt P51451) / inhibition / CS(=O)(=O)Nc1ccc(-c2ccc3c(NC(=O)C4CC4)n[nH]c3c2)cc1 : value?
Key: 9.5

----------
Give inhibition for every item shown.
- measurement_target: Ribosomal protein S6 kinase alpha-4 (Homo sapiens);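 also: mean inhibition of MSK2, GSK PKIS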
- measurement_setup: at 1 µM
The response must be a number in % with no trailing unit.

Exercise: Would you kindly share the measured inhibition for COc1cc2c(cc1Nc1nc(Nc3cccc(F)c3C(N)=O)c3cc[nH]c3n1)N(C(=O)CN1CCN(C(C)C)CC1)CC2 ?
Key: 3.9

Exercise: Would you kindly share the measured inhibition for CNC(=O)c1sc(-n2cnc3cc(OC)c(OC)cc32)cc1OCc1ccccc1C(F)(F)F ?
Key: 2.24

Exercise: Would you kindly share the measured inhibition for Cc1nnc(-c2cccc(-c3ccc(C(=O)NCC4CC4)cc3)c2)o1 ?
Key: 3.75

Exercise: Would you kindly share the measured inhibition for CCOc1ccc2c(-c3ccnc(Nc4cc(OC)cc(C(F)(F)F)c4)n3)cnn2n1 ?
Key: -0.61

Exercise: Would you kindly share the measured inhibition for CN1CCC(n2cnc(-c3ccc(F)cc3)c2-c2ccnc(NCCO)n2)CC1 ?
Key: 4.02

Exercise: Would you kindly share the measured inhibition for N#Cc1ccc2c(-c3ccnc(NC4CC4)n3)c(-c3ccc(F)cc3)nn2c1 ?
Key: -0.56

Exercise: Would you kindly share the measured inhibition for c1ccc(-c2n[nH]cc2-c2ccnc(-c3ccc(OCCn4ccnc4)cc3)c2)nc1 ?
Key: 3.98

----------
- measurement_target: Protein-tyrosine kinase 2-beta (Homo sapiens);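 also: reported as mean percent inhibition of PYK2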
- measurement_setup: at 0.1 µM
reported_property: inhibition (%)
The response must be a number in % with no trailing unit.

Exercise: Would you kindly share the measured inhibition for CC(C)c1ccc(-c2cc(-c3c[nH]nc3-c3ccccn3)ccn2)cc1 ?
Key: 1.78

Exercise: Would you kindly share the measured inhibition for CCS(=O)(=O)c1ccc(OC)c(Nc2ncc(-c3cccc(F)c3)o2)c1 ?
Key: 11

Exercise: Would you kindly share the measured inhibition for Cc1cc(O)cc(C)c1/C=C/c1cncc(C(N)=O)c1 ?
Key: 8.94

----------
- measurement_target: Calcium/calmodulin-dependent protein kinase type 1D (Homo sapiens);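 also: reported figure is the mean inhibition of CAMK1D, from the GSK PKIS screening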
- measurement_setup: at 0.1 µM
Give inhibition for every item shown.
The response must be a number in % with no trailing unit.

Exercise: Would you kindly share the measured inhibition for COc1cc(N2CCN(C(C)C)CC2)ccc1Nc1nc(Nc2cccc3ncccc23)c2cc[nH]c2n1 ?
Key: 1.82

Exercise: Would you kindly share the measured inhibition for CCS(=O)(=O)c1ccc(OC)c(Nc2ncc(-c3cccc(F)c3)o2)c1 ?
Key: 0.89

Exercise: Would you kindly share the measured inhibition for O=C(Nc1n[nH]c2nnc(-c3cccnc3)cc12)C1CC1 ?
Key: 0.85

Exercise: Would you kindly share the measured inhibition for COc1cc2c(cc1Nc1nc(Nc3cccc(F)c3C(N)=O)c3cc[nH]c3n1)N(C(=O)CN1CCN(C(C)C)CC1)CC2 ?
Key: 1.29

Exercise: Would you kindly share the measured inhibition for NS(=O)(=O)c1ccc(N/N=C2\C(=O)Nc3ccc(C(=O)NCc4ccncc4)cc32)cc1 ?
Key: -0.48

Exercise: Would you kindly share the measured inhibition for COc1cc(Nc2ncc(-c3ccccc3)o2)cc(OC)c1 ?
Key: -0.33

Exercise: Would you kindly share the measured inhibition for OCCCNc1nccc(-c2c(-c3ccc(F)cc3)nn3cc(C(F)(F)F)ccc23)n1 ?
Key: -0.48

Exercise: Would you kindly share the measured inhibition for CC1=C(C(=O)Nc2ccc3[nH]nc(C)c3c2)C(c2ccc(C(F)(F)F)cc2)CC(=O)N1 (stereo not given) ?
Key: 0.54

Exercise: Would you kindly share the measured inhibition for CCOc1ccc2c(-c3ccnc(Nc4cc(OC)cc(C(F)(F)F)c4)n3)cnn2n1 ?
Key: 0.33

Exercise: Would you kindly share the measured inhibition for CS(=O)(=O)CCNCc1ccoc1-c1ccc2ncnc(Nc3ccc(OCc4ccccc4)cc3)c2c1 ?
Key: -0.18

Exercise: Would you kindly share the measured inhibition for Cn1c(-c2nonc2N)nc2cnccc21 ?
Key: 0.12

Exercise: Would you kindly share the measured inhibition for Cc1c2ccc(N(C)c3ccnc(Nc4cccc(S(N)(=O)=O)c4)n3)cc2nn1C ?
Key: 0.58

Exercise: Would you kindly share the measured inhibition for CS(=O)(=O)Nc1ccc(-c2cc(-c3ccccc3)cc(C(N)=O)c2N)cc1 ?
Key: -0.99

Exercise: Would you kindly share the measured inhibition for O=C(O[C@H]1CN[C@H](C#Cc2cc3ncnc(Nc4ccc(OCc5cccc(F)c5)c(Cl)c4)c3s2)C1)N1CCOCC1 ?
Key: -0.02

Exercise: Would you kindly share the measured inhibition for CCS(=O)(=O)c1ccc(OC)c(Nc2ncc(-c3cccc(C(C)=O)c3)o2)c1 ?
Key: 0.3

Exercise: Would you kindly share the measured inhibition for NS(=O)(=O)c1cccc(N/C=C2\C(=O)Nc3ccccc32)c1 ?
Key: 0.94

Exercise: Would you kindly share the measured inhibition for CC(C)c1ccc(-c2cc(-c3c[nH]nc3-c3ccccn3)ccn2)cc1 ?
Key: -0.78

Exercise: Would you kindly share the measured inhibition for COC(=O)Nc1nc2cc(Oc3ccc(NC(=O)Nc4ccccc4)cc3)ccc2[nH]1 ?
Key: 0.99

Exercise: Would you kindly share the measured inhibition for NC(=O)c1ccc2c(-c3ccnc(NCCCO)n3)c(-c3ccc(F)cc3)nn2c1 ?
Key: -0.23

Exercise: Would you kindly share the measured inhibition for CNC(=O)c1cncc(/C=C/c2ccccc2C)c1 ?
Key: -0.17

Exercise: Would you kindly share the measured inhibition for COc1ccccc1-c1cc(/C=C2\C(=O)Nc3ncc(Br)cc32)cc(Br)c1O ?
Key: 0.1

Exercise: Would you kindly share the measured inhibition for COc1ccc(-c2nn3ncccc3c2-c2ccnc(Nc3ccc(F)c(F)c3)n2)cc1 ?
Key: -0.12

Exercise: Would you kindly share the measured inhibition for FC(F)(F)CNc1nccc(-c2cnn3ncccc23)n1 ?
Key: 0.18

Exercise: Would you kindly share the measured inhibition for N#Cc1ccc2c(-c3ccnc(NC4CC4)n3)c(-c3ccc(F)cc3)nn2c1 ?
Key: -0.16

Exercise: Would you kindly share the measured inhibition for CCN1CCC(C(=O)Nc2n[nH]c3nnc(-c4cccc(F)c4F)cc23)CC1 ?
Key: 0.68

Exercise: Would you kindly share the measured inhibition for COc1c(C(N)=O)cc(-c2ccc(Cl)cc2)cc1-c1ccc(S(N)(=O)=O)cc1 ?
Key: 0.45

Exercise: Would you kindly share the measured inhibition for CN(C)CCNC(=O)Nc1ccc(N(C)c2ccnc(Nc3ccc(CS(C)(=O)=O)cc3)n2)cc1 ?
Key: 0.53

Exercise: Would you kindly share the measured inhibition for CS(=O)(=O)Nc1ccc(-c2ccc3c(NC(=O)C4CC4)n[nH]c3c2)cc1 ?
Key: 0.46

Exercise: Would you kindly share the measured inhibition for O=C(O[C@H]1CN[C@H](C#Cc2cc3ncnc(Nc4ccc5c(cnn5Cc5ccccc5)c4)c3s2)C1)N1CCOCC1 ?
Key: 0.26

Exercise: Would you kindly share the measured inhibition for COc1cccc(Nc2nccc(-c3cnn4ncccc34)n2)c1 ?
Key: -0.48
